assay-target: Hexose transporter 1 (Plasmodium falciparum) (UniProt O97467)
method-description: ST_JUDE_LEISH: Cytotoxicity at 2uM final concentration against transgenic Leishmania Mexicana promastigotes LmPfHT that are glucose transport deficient and complemented with the Plasmodium falciparum hexose transporter. Activity is measured by DNA content using SYBR green in vitro
Format: functional
Measured inhibition values are reported for all entries that follow.

Here are 3 compounds together with their reported answers.
O=C(Nc1cccc(-c2nn3ccccc3c2-c2ccnc(Nc3ccccc3)n2)c1)c1cc(F)ccc1F ... 2.05%
CCc1ccc(C2CCN(CCCCNC(=O)c3ccc(NC(=O)c4ccc(Cl)cc4)cc3)CC2)c(OC(C)=O)c1 ... 3.47%
O=C(NC1CC1)c1cnc(N2CCCC(c3ccccc3)C2)c(Cl)c1 (centres undefined) ... -0.31%

GET /values?item= COc1ccc(NC(=O)[C@H](Cc2ccccc2)Nc2cc(C)nc(NCCc3cccnc3)n2)cc1 &system= Hexose transporter 1 (Plasmodium falciparum) (UniProt O97467) returns inhibition: 1.12%

GET /values?item= C[C@H](Cc1ccc(OCCCCCOc2ccc(C[C@@H](C)NC[C@H](O)c3cccc(Cl)c3)cc2)cc1)NC[C@H](O)c1cccc(Cl)c1 &system= Hexose transporter 1 (Plasmodium falciparum) (UniProt O97467) returns inhibition: 104%

GET /values?item= Cc1ccc(-c2nc3cc(C(=O)NC4CCC(N5CCCc6ccc(C#N)cc6C5)CC4)ccc3[nH]2)cc1 (centres undefined) &system= Hexose transporter 1 (Plasmodium falciparum) (UniProt O97467) returns inhibition: -0.52%

GET /values?item= CS(=O)(=O)Cc1ccc(Nc2ncc(Cl)c(Nc3cccnc3C(N)=O)n2)cc1 &system= Hexose transporter 1 (Plasmodium falciparum) (UniProt O97467) returns inhibition: 32.1%

GET /values?item= CCc1ccc(C(=O)Nc2cccc(CN3CCCN(Cc4ccc(O)cc4)CC3)c2)cc1 &system= Hexose transporter 1 (Plasmodium falciparum) (UniProt O97467) returns inhibition: -2.75%

GET /values?item= Cc1ccccc1CNC(=O)Nc1cccc(-c2csc(NC(=N)N)n2)c1 &system= Hexose transporter 1 (Plasmodium falciparum) (UniProt O97467) returns inhibition: 0.56%
